System: UO-31 renal
assay method text: NCI tumour cell line growth inhibition, 48 h
Below: a set of entries, each annotated with reported TGI.

O=C(O)CCC(=O)Oc1ccc(O)c2c1CCCC2=O : > 100 µM
Cc1ccc(C(=O)C(c2nc3n(c2O)C(=N)N=N3)c2nc3n(c2O)C(=N)N=N3)cc1 (stereo unspecified) : > 100 µM
CCC(=O)N(c1ccccc1)C(C)CN1CCC(O)(c2cccc(C(F)(F)F)c2)CC1 (stereo unspecified) : 72.6 µM
[N-]=[N+]=NCCCn1c2c(c3ccc([N+](=O)[O-])cc3c1=O)C(=O)c1cc(I)ccc1-2 : 45.6 µM
COc1cc(-c2cc(-c3cccs3)c(C#N)c(N3CCOCC3)n2)cc(OC)c1OC : > 100 µM
Cc1ccc(C(=O)O)c(/C=C2\Cc3cc(C)cc(C)c3C2=O)c1 : > 100 µM
CC12CC/C(=N/NC(N)=O)C3C1CCCC32 : > 100 µM
N#CC(C(=O)/C(=N/NC(=O)c1ccccc1O)C(C#N)c1ccc(Br)cc1)c1ccc(Br)cc1 (stereo unspecified) : 26.1 µM

Q: Consider the compound CSCCC(NC(=O)Cc1ccc(C(=O)c2ccccc2)cc1)C(=O)N1CCN(CCCCN2c3ccccc3Sc3cc(N=[N+]=[N-])ccc32)CC1 (stereo unspecified) tested on UO-31 renal; state its TGI.
A: > 100 µM

Q: Consider the compound C[C@@H](Oc1ccc(Oc2cnc3ccc(Cl)cc3n2)cc1)C(=O)O tested on UO-31 renal; state its TGI.
A: > 100 µM

###

Test system: SN12C renal
assay method text: NCI tumour cell line growth inhibition, 48 h; in the data active means GI50 below about 0.43 µM; inactive means the rest
Mark one answer only. Choices: active, inactive

Here are 4 molecules together with their reported answers.
C=C1C[C@@H](O)[C@@H](Br)C(C)(C)[C@]12CCC(C)(Br)C(Cl)C2 (stereo partly drawn) : inactive
CCNC(=O)Oc1ccc(/C(=C(\C)c2ccc(Cl)cc2)c2ccc(OCCN(CC)CC)cc2)cc1 : inactive
COC1=CC(c2ccc[nH]2)=N/C1=C\c1[nH]c(C)c(C(=O)Oc2ccccc2)c1C : active
CN1CCN(Cc2ccc(NC(=O)c3cncc(C#Cc4c(N)ncc5c(F)cccc45)c3)cc2C(F)(F)F)CC1 : inactive

Q: Write down the call the test reported for this molecule. Item: COc1cc(-c2cc(-c3cccs3)c(C#N)c(N3CCOCC3)n2)cc(OC)c1OC
A: inactive

Q: Write down the call the test reported for this molecule. Item: CCOC(=O)Nc1ccc2nc(N3CCCCCC3)sc2c1
A: inactive

Q: Write down the call the test reported for this molecule. Item: COc1cc(N2CCN(C(C)C)CC2)ccc1Nc1nc(Nc2ccc(F)cc2C(=O)NCC(O)CO)c2cc[nH]c2n1 (stereo not drawn)
A: inactive

###

Below: a set of entries, each annotated with reported log10(TGI).
System: A498 renal
assay method text: NCI tumour cell line growth inhibition, 48 h
A value of 2 here means TGI of 100 in µM, since values are log10.

Some molecules with recorded log10(TGI):
CN(C)CCOc1ccc2[nH]c(C(=O)N3CC(CCl)c4c3cc([N+](=O)[O-])c3ccccc43)cc2c1 (centres undefined) : 1.39
CCN(CC)CCCC(C)Nc1c2ccc(Cl)cc2nc2cc(Cl)ccc12 (centres undefined) : 1.34
Cc1ccc(/C=C(/C#N)n2nnc3ncccc32)cc1 : 0.88
O=C(/C=C\c1cc(Br)ccc1O)/C=C/c1cc(Br)ccc1O : 0.51
CON=C1C[C@]2(C[C@@H]3C[C@@H](C/C=C(\C)C[C@@H](C)/C=C/C=C4\CO[C@@H]5[C@H](O)C(C)=C[C@@H](C(=O)O3)[C@]45O)O2)O[C@H](/C(C)=C/C(C)C)[C@H]1C : 1.36
CNCCCn1c2c(c3ccc(Cl)cc3c1=O)C(=O)c1cc(OC)cnc1-2 : 0.96

Q: Identify measured log10(TGI) corresponding to CN1CN(c2ccccc2)C2(CCN(C3Nc4ccccc4O3)CC2)C1=O (centres undefined)
A: 1.62

Q: Identify measured log10(TGI) corresponding to C/C(=N\Nc1nc2ccccc2o1)c1ncccn1
A: 1.20

Q: Identify measured log10(TGI) corresponding to O=C(Nc1ccc(Oc2ccc(NC(=O)Nc3ccccc3Cl)cc2)cc1)Nc1ccccc1Cl
A: 1.81

Q: Identify measured log10(TGI) corresponding to COc1ccc(C2CC(c3ccccc3)=NN2C(=O)c2cc(OC)c(OC)c(OC)c2)cc1O (centres undefined)
A: 1.29

Q: Identify measured log10(TGI) corresponding to CCCCC(O)(c1ccccc1)C(O)(c1ccccc1)c1c(F)c(F)c(F)c(F)c1F (centres undefined)
A: 1.69

Q: Identify measured log10(TGI) corresponding to COc1ccc2nc3cc([N+](=O)[O-])ccc3c(NNc3ccc([N+](=O)[O-])cc3)c2c1
A: -0.42

Q: Identify measured log10(TGI) corresponding to CC(=O)OC1CC2C(C)(C)CCC[C@]2(C)C2=C1C(O)=C(C(C)C)C(=O)C2=O (some centres undefined)
A: 0.25

Q: Identify measured log10(TGI) corresponding to O=C(NNC(=S)Nc1ccc(Cl)cc1)C12CC3CC(CC(C3)C1)C2
A: 1.36

Q: Identify measured log10(TGI) corresponding to CCCCCCCCCC(=O)NCCc1c[nH]c2ccc(OC)cc12
A: 1.48

Q: Identify measured log10(TGI) corresponding to CC(C)C1CC(CO)(CNc2nc(N)nc(Cl)c2/C=N\O)C1 (centres undefined)
A: 1.54

###

Test system: HCT-15 colon
assay method text: NCI tumour cell line growth inhibition, 48 h
measurement label: GI50

Cc1ccc(/C=C(/C#N)n2nnc3ncccc32)cc1 : 1.45 µM

Q: Consider the molecule COc1cccc(CCNC(=O)CC(c2ccccc2)(c2ccccc2)c2ccccc2)c1 tested on HCT-15 colon; state its GI50.
A: > 100 µM

Q: Consider the molecule O=C(/C=C/c1ccco1)Nc1ncc(Cc2cccc(C(F)(F)F)c2)s1 tested on HCT-15 colon; state its GI50.
A: 0.0465 µM

Q: Consider the molecule CCNC(=O)Oc1ccc(/C(=C(\C)c2ccc(Cl)cc2)c2ccc(OCCN(CC)CC)cc2)cc1 tested on HCT-15 colon; state its GI50.
A: 2.21 µM

Q: Consider the molecule c1ccc(COCC[P+](c2ccccc2)(c2ccccc2)c2ccccc2)cc1 tested on HCT-15 colon; state its GI50.
A: 14.2 µM

Q: Consider the molecule O=C(Nc1ccc(Oc2ccc(NC(=O)Nc3ccccc3Cl)cc2)cc1)Nc1ccccc1Cl tested on HCT-15 colon; state its GI50.
A: 0.677 µM

Q: Consider the molecule N.N.N.N.N.N#Cc1nn[n-]n1.[Cl-].[Co+3] tested on HCT-15 colon; state its GI50.
A: > 100 µM

Q: Consider the molecule CC[O-].CC[O-].COc1ccc(C(=O)[CH-]C(C)=O)cc1OC.COc1ccc(C(=O)[CH-]C(C)=O)cc1OC.[Ti+4] tested on HCT-15 colon; state its GI50.
A: 90.1 µM

Q: Consider the molecule Clc1ccc(C2CC(c3cccc(Nc4ccncc4)c3)=NN2c2ccccc2)cc1 (stereo not given) tested on HCT-15 colon; state its GI50.
A: 1.42 µM

Q: Consider the molecule CCC[CH2][Sn]1([CH2]CCC)[O]C(=O)CN=C(C)c2ccccc2[O]1 tested on HCT-15 colon; state its GI50.
A: 1.15 µM

###

System: SK-MEL-2 melanoma
assay method text: NCI tumour cell line growth inhibition, 48 h
Below: a set of entries, each annotated with reported GI50.

CON=C1C[C@]2(C[C@@H]3C[C@@H](C/C=C(\C)C[C@@H](C)/C=C/C=C4\CO[C@@H]5[C@H](O)C(C)=C[C@@H](C(=O)O3)[C@]45O)O2)O[C@H](/C(C)=C/C(C)C)[C@H]1C : 15.4 µM

Q: Identify measured GI50 corresponding to O=C(O)c1ccc(NCc2nc3ccccc3[nH]2)cc1
A: > 100 µM

Q: Identify measured GI50 corresponding to Nc1nc(=S)c2ncn(C3OC(CO)C(O)C3O)c2[nH]1 (centres undefined)
A: 10.5 µM

Q: Identify measured GI50 corresponding to CN1CCN(Cc2ccc(NC(=O)c3cncc(C#Cc4c(N)ncc5c(F)cccc45)c3)cc2C(F)(F)F)CC1
A: 0.809 µM

###

Tested on: M19-MEL melanoma
assay method text: NCI tumour cell line growth inhibition, 48 h
Below: a set of entries, each annotated with reported TGI.

Q: Identify measured TGI corresponding to CCOC(=O)NC(=O)c1cn(CCCCCCCCCCC(=O)NCCCN2CCN(CCCNC(=O)CCCCCCCCCCn3cc(C(=O)NC(=O)OCC)c(=O)[nH]c3=O)CC2)c(=O)[nH]c1=O
A: > 100 µM

Q: Identify measured TGI corresponding to O=C(CSc1nnc(Cc2ccccc2)o1)Nc1ccc(Cl)cc1[N+](=O)[O-]
A: 34.8 µM

Q: Identify measured TGI corresponding to CC(C)COC(=O)c1ccc(N=Cc2ccc(C=Nc3ccc(C(=O)OCC(C)C)cc3)cc2)cc1
A: > 100 µM

Q: Identify measured TGI corresponding to COC(=O)C(=O)C(C#N)c1cccc(Cl)c1 (stereo unspecified)
A: > 100 µM

Q: Identify measured TGI corresponding to CC(=O)NNc1nc(C)c(C(/C=C/c2ccc(Cl)cc2)=N\N=C(N)N)s1
A: > 100 µM

Q: Identify measured TGI corresponding to Cc1ccc(C(=O)C(c2nc3n(c2O)C(=N)N=N3)c2nc3n(c2O)C(=N)N=N3)cc1 (stereo unspecified)
A: > 100 µM
